biological target: Recombinant truncated stromelysin (human sequence) (Homo sapiens); construct: made in house; host or cells: E. coli; test: Determination of Stromelysin Inhibition (cleavage of thiopeptide ester substrate, DTNB, 405 nm); format: biochemical; conditions: Inhibitory potencies against stromelysin; 30 min assay at ambient temperature, pH 6.5; read-out: IC50
Sequence (P08254 100-272 limits assumed): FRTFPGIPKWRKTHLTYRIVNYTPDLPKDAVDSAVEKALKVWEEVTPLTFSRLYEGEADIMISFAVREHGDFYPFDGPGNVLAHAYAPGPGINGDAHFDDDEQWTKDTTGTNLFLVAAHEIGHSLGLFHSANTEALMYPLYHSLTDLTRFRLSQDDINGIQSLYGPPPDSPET
pIC50: −log10 of the molar value.
TEST_READOUT: pIC50

1. CNC(=O)[C@@H]1Cc2ccc(cc2)NCCCCC[C@H](C(=O)NO)[C@@H](CC(C)C)C(=O)N1 [Example 19] | 7.70
2. CNC(=O)[C@@H]1Cc2ccc(cc2)OCCCCCC[C@H](C(=O)NO)[C@@H](CC(C)C)C(=O)N1 [Example 12] | 7.92
3. CNC(=O)[C@@H]1Cc2ccc(cc2)OCCCCC[C@H](C(=O)NO)[C@@H](CCCc2ccc(C)cc2)C(=O)N1 [Example 31] | 8.54
4. CC(C)C[C@H]1C(=O)N[C@H](c2nc(-c3ccccc3)c[nH]2)Cc2ccc(cc2)OCCCCC[C@@H]1C(=O)NO [Example 23] | 8.09
5. CC(C)C[C@H]1C(=O)N[C@H](C(=O)c2ccc[nH]2)Cc2ccc(cc2)OCCCCC[C@@H]1C(=O)NO [Example 15] | 8.14
6. CNC(=O)[C@H]1NC(=O)[C@H](CC(C)C)[C@@H](C(=O)NO)CCCCCOc2ccc1cc2 [Example 41] | 7.59
7. CNC(=O)[C@@H]1Cc2ccc(cc2)/C=C\CCCCC(C(=O)NO)[C@@H](CC(C)C)C(=O)N1 (stereo partly shown) [Example 13] | 8.62
